For each entry below, report its self-aminoacylation value.
test system: biotinyl-Met-oxazolone; experiment: self-aminoacylation, catalytic enhancement (BMO) (fold over background); higher = more active; k-Seq, kA / k0A0; sequences stand for … in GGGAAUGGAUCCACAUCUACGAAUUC…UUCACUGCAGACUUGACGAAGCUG
Fewer inactive variants are shown than the library holds.
Answer with a number only.

The reported self-aminoacylation value, biotinyl-Met-oxazolone, for CUACGUCAAACAAUCGGUCAG [Fam1A.1 aminoacylation ribozyme variant] reads 0.917

The reported self-aminoacylation value, biotinyl-Met-oxazolone, for AUUCGCCUAAGUCAUCGGGUG [Fam2.2 aminoacylation ribozyme variant] reads 12.9

The reported self-aminoacylation value, biotinyl-Met-oxazolone, for AUUACGCUGGUCAUCGAGGGA [Fam2.1 aminoacylation ribozyme variant] reads 1.46

The reported self-aminoacylation value, biotinyl-Met-oxazolone, for CCACACUUCACGCAAUUGGUC [Fam1B.1 aminoacylation ribozyme variant] reads 0.667

The reported self-aminoacylation value, biotinyl-Met-oxazolone, for AUUCACCUAGGUUAGCGGGUG [Fam2.2 aminoacylation ribozyme variant] reads 2.98

The reported self-aminoacylation value, biotinyl-Met-oxazolone, for CUUACCCUGGUCCUCGAGUGA [Fam2.1 aminoacylation ribozyme variant] reads 5.36

The reported self-aminoacylation value, biotinyl-Met-oxazolone, for AUUCAUCUAGGUCAUAGGGUG [Fam2.2 aminoacylation ribozyme variant] reads 2.63

The reported self-aminoacylation value, biotinyl-Met-oxazolone, for AUUCACCUAGUUCAUCGGGCG [Fam2.2 aminoacylation ribozyme variant] reads 2.19

The reported self-aminoacylation value, biotinyl-Met-oxazolone, for CCGCACUUCAAGGAAUCGGUC [Fam1B.1 aminoacylation ribozyme variant] reads 1.37
